Source listed as patent US9149465B2.

Here the recorded Ki is given for each entry.
Target: human FAAH (Homo sapiens)
Sequence (O00519 1-579): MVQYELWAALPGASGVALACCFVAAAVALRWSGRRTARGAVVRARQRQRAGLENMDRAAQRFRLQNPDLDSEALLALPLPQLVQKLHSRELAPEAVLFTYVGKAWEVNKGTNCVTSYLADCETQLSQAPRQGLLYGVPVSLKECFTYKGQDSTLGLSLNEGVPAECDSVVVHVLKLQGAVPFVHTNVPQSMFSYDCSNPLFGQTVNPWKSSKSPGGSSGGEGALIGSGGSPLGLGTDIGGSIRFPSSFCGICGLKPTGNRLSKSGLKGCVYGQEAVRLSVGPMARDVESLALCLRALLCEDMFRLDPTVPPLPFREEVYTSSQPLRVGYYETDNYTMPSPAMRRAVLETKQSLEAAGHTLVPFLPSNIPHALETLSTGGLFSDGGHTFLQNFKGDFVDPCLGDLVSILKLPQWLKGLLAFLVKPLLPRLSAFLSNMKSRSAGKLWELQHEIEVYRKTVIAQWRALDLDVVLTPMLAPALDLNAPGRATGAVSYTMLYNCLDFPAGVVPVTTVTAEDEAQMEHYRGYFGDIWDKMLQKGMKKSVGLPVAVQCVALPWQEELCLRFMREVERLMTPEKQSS

Worked examples follow.
>>> meas_value("Cc1nnc(-c2ccc(OC3=NOC(c4ccc(Oc5ccccc5)cc4)C3)cc2)o1 (racemic)")
"≤ 0.1 µM"
>>> meas_value("CC1(c2ccc(OC(F)(F)F)cc2)CC(Oc2ccc(S(C)(=O)=O)nc2)=NO1 (racemic)")
"≤ 0.1 µM"
>>> meas_value("O=C(O)c1cccc(-c2ccc(OC3=NOC(c4ccc(OC(F)(F)F)cc4)C3)cn2)c1 (racemic)")
"0.1 to 1 µM"
>>> meas_value("CSc1ccc(OC2=NOC(C)(c3ccc(OC(F)(F)F)cc3)C2)cn1 (racemic)")
"≤ 0.1 µM"

Enter reported Ki observed with human FAAH (Homo sapiens) for O=C(O)c1ccc(OC2=NOC(c3ccc(C(F)(F)F)cc3)C2)cn1 (racemic) ≤ 0.1 µM

Enter reported Ki observed with human FAAH (Homo sapiens) for COC1=NOC(c2ccc(Oc3ccccc3)cc2)C1 (single isomer, unassigned) ≥ 1 µM

Enter reported Ki observed with human FAAH (Homo sapiens) for O=C(NCCO)c1ccc(OC2=NOC(c3ccc(OC(F)(F)F)cc3)C2)cn1 (racemic) ≤ 0.1 µM

====

Biological target: human FAAH (Homo sapiens)
Sequence (O00519 1-579): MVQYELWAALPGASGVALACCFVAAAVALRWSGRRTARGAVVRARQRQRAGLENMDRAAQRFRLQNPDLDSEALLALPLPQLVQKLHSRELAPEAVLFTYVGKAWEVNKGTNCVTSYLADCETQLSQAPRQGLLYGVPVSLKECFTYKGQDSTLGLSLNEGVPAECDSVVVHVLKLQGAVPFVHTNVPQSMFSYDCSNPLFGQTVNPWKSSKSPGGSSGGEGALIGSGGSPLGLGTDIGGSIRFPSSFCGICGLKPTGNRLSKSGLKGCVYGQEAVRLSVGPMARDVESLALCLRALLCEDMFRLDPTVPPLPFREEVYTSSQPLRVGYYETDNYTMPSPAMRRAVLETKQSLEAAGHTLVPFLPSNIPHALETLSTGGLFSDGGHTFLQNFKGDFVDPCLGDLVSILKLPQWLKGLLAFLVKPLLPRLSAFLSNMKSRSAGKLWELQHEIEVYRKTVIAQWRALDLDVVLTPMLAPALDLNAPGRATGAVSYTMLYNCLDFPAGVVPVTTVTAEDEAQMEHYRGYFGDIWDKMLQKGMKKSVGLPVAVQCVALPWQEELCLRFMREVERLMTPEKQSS
pKi: −log10 of the molar value.
Quantity Measured: pKi

Worked examples follow.
>>> meas_value("OCCNC1=NOC(c2ccc(Oc3ccccc3)cc2)C1 (racemic)")
"6.00 to 7.00"
>>> meas_value("C#CCOc1ccc([C@H]2CC(Oc3ccc(C(=O)O)nc3)=NO2)cc1 (racemic)")
"≥ 7.00"
>>> meas_value("COC(=O)c1cncc(OC2=NOC(c3ccc(OC(F)(F)F)cc3)C2)c1 (single isomer, unassigned)")
"6.00 to 7.00"

Enter reported pKi observed with human FAAH (Homo sapiens) for CC1(c2ccc(OC(F)(F)F)cc2)CC(Oc2cncc(-c3n[nH]c(=O)o3)c2)=NO1 (racemic) 6.00 to 7.00

Enter reported pKi observed with human FAAH (Homo sapiens) for O=C(O)c1ccc(OC2=NOC(c3ccc(OC(F)(F)F)cc3)C2)cn1 (racemic) ≥ 7.00

Enter reported pKi observed with human FAAH (Homo sapiens) for FC(F)(F)C1(c2ccc(Oc3ccccc3)cc2)CC(Oc2cncnc2)=NO1 (racemic) ≥ 7.00

Enter reported pKi observed with human FAAH (Homo sapiens) for Fc1cccc(-c2ccc(C3CC(Oc4cncnc4)=NO3)c(F)c2)c1 (racemic) ≥ 7.00

Enter reported pKi observed with human FAAH (Homo sapiens) for FC(F)(F)Oc1ccc(C2CC(Oc3cccnc3)=NO2)cc1 (racemic) ≥ 7.00

Enter reported pKi observed with human FAAH (Homo sapiens) for Cn1nccc1-c1ccc(OC2=NOC(c3ccc(OC(F)(F)F)cc3)C2)cn1 (racemic) ≥ 7.00

Enter reported pKi observed with human FAAH (Homo sapiens) for CS(=O)(=O)c1ccc(OC2=NOC(c3ccc(Oc4ccccc4)cc3)C2)cn1 (racemic) ≥ 7.00

====

Target protein (sequence): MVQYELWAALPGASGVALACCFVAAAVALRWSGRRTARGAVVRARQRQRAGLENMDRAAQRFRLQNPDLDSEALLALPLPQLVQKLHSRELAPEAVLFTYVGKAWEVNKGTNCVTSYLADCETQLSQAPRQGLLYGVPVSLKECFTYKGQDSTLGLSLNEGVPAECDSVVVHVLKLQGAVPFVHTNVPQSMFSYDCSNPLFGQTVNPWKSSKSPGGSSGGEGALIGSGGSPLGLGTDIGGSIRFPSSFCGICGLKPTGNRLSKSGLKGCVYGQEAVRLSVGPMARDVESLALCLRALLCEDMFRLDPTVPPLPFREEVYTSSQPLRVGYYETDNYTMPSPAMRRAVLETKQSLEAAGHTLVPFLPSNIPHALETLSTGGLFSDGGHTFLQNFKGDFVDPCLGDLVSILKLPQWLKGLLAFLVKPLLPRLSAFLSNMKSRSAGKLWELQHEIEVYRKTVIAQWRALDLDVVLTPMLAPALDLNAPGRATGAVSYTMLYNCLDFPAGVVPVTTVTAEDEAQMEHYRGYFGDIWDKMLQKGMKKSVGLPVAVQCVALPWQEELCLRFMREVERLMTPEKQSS
Quantity Measured: Ki

Worked examples follow.
>>> meas_value("NC(=O)c1cncc(OC2=NOC(c3ccc(Oc4ccccc4)cc3)C2)c1 (single isomer, unassigned) [I-47]")
"100 to 1000 nM"
>>> meas_value("O=[N+]([O-])c1ccc(OC2=NOC(c3ccc(Oc4ccccc4)cc3)C2)cc1 (single isomer, unassigned) [I-29]")
"100 to 1000 nM"
>>> meas_value("CNC(=O)c1ccc([C@H]2CC(Br)=NO2)cc1 (racemic) [I-204]")
"100 to 1000 nM"
>>> meas_value("C#CCOc1ccc([C@H]2CC(Oc3ccc(C(=O)OC)nc3)=NO2)cc1 (racemic) [I-144]")
"≤ 100 nM"

Now for another entry.
Quick one: Ki of CCN(C1=NOC(c2ccc(OC(F)(F)F)cc2)C1)c1ccccc1 (racemic) [I-253] ? ≥ 1000 nM

====

Target: human FAAH (Homo sapiens, UniProt O00519)
Sequence (O00519 1-579): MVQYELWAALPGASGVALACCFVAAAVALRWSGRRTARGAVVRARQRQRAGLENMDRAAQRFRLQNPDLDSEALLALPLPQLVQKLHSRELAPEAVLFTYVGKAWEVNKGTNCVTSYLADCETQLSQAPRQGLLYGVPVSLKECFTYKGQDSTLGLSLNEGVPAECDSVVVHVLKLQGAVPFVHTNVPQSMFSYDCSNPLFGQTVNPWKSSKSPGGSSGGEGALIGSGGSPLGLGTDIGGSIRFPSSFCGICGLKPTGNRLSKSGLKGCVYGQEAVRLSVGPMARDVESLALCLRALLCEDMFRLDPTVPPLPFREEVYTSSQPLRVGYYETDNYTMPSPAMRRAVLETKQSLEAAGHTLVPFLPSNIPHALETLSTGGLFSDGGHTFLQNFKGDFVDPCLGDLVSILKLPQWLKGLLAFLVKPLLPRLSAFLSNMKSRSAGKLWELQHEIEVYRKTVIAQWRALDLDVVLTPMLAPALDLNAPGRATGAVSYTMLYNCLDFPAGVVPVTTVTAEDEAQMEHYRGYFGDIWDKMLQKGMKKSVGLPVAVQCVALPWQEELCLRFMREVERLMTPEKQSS
Quantity Measured: Ki

Worked examples follow.
>>> meas_value("CC1(c2ccc(OC(F)(F)F)cc2)CC(Oc2cncc(-c3nnco3)c2)=NO1 (racemic)")
"≤ 0.1 µM"
>>> meas_value("O=C(NCc1ccccc1)c1ccc([C@H]2CC(Oc3ccc(C(=O)O)nc3)=NO2)cc1 (racemic)")
"0.1 to 1 µM"
>>> meas_value("O=C(O)c1ccc(OC2=NOC(c3ccc(OC(F)(F)F)cc3)C2)cc1 (racemic)")
"0.1 to 1 µM"

Quick one: Ki of c1ccc(-c2ccc([C@H]3CC(Oc4cccnc4)=NO3)cc2)cc1 (racemic) ? ≤ 0.1 µM

Quick one: Ki of CC1(c2ccc(OC(F)(F)F)cc2)CC(Oc2cncnc2)=NO1 (racemic) ? ≤ 0.1 µM

Quick one: Ki of FC(F)(F)Oc1ccc(C2CC(Oc3cncc(Br)c3)=NO2)cc1 (racemic) ? ≤ 0.1 µM

Quick one: Ki of O=C(c1ccc([C@H]2CC(Br)=NO2)cc1)N1CCCC1 (racemic) ? ≤ 0.1 µM
